- Test system: CAKI-1 renal
- ASSAY INFO: NCI tumour cell line growth inhibition, 48 h
REPORTED METRIC: TGI

[[record]]
molecule = "COC(=O)c1ccccc1NC(=O)C(=O)CC(=O)CC(c1ccccc1)c1c(O)c2ccccc2oc1=O (configuration not stated)"
reported = "> 100 µM"

[[record]]
molecule = "O=C(O)/C(=C\\c1ccccc1Cl)S(=O)(=O)c1ccccc1"
reported = "> 100 µM"

[[record]]
molecule = "CC1(C)N=C(C(=O)c2ccccc2)N(O)C1(O)c1ccccc1 (configuration not stated)"
reported = "> 100 µM"

[[record]]
molecule = "CCc1cccc(CC)c1NC(=O)C1=C(C)NC(C)=C(C(=O)Nc2c(CC)cccc2CC)C1c1ccc2c(c1)OCO2"
reported = "52 µM"

[[record]]
molecule = "O=C(Nc1ccc(Cl)cc1)c1cc(S(=O)(=O)Nc2nnc(-c3ccccc3)c(-c3ccccc3)n2)c(SCc2ccccc2)cc1Cl"
reported = "> 59 µM"

[[record]]
molecule = "O=C(O)C(O)C(O)C(O)C(=O)CO (configuration not stated)"
reported = "> 100 µM"

[[record]]
molecule = "O=C1c2ccccc2C(C2c3ccccc3C(=O)c3cc(Br)ccc32)c2ccc(Br)cc21 (configuration not stated)"
reported = "> 100 µM"

[[record]]
molecule = "COc1ccc(C(=O)N(C(=O)N2CCN(c3ccccc3)CC2)S(=O)(=O)c2ccccc2)cc1"
reported = "54.2 µM"


Req: Return TGI measured with CAKI-1 renal given this molecule: O=C1CC2(CCC(O)(c3cccs3)C(C(=O)c3cccs3)C2)C(=O)c2ccccc2N1 (configuration not stated)
Resp: > 100 µM

Req: Return TGI measured with CAKI-1 renal given this molecule: COc1ccc2c(c1)CCC1=C/C(=N\NC(N)=O)CCC12C (configuration not stated)
Resp: > 10 µM

Req: Return TGI measured with CAKI-1 renal given this molecule: `Clc1ccc(C=NC23CC4CC(CC(C4)C2)C3)cc1Cl`
Resp: > 10 µM

Req: Return TGI measured with CAKI-1 renal given this molecule: `O=c1oc2ccccc2c(O)c1C(c1ccc2c(c1)Cc1ccccc1-2)c1c(O)c2ccccc2oc1=O`
Resp: 41.5 µM

====

The reader will find reported TGI values listed item by item below.
- Tested on: HCT-15 colon
- ASSAY INFO: NCI tumour cell line growth inhibition, 48 h

[[record]]
compound = "C[C@]12C3CC[C@@]4(CO)C[C@]3(CCC1[C@](C)(C(=O)O)CC[C@@H]2O)CC4=O (stereo partly specified)"
reported_metric = "TGI"
reported = "> 100 µM"

[[record]]
compound = "O=S(=O)(O)/C(=C\\c1ccccc1)c1ccccc1 (tested in a mixture with another compound)"
reported_metric = "TGI"
reported = "> 100 µM"

[[record]]
compound = "Cc1cc(C)cc(Nc2ccc([N+](=O)[O-])c(NCCN3CCOCC3)n2)c1"
reported_metric = "TGI"
reported = "> 100 µM"

[[record]]
compound = "Nc1nc(NCC2(CO)CCC2)cc(=O)[nH]1"
reported_metric = "TGI"
reported = "> 100 µM"


Req: Return TGI measured with HCT-15 colon given this compound: `O=c1oc2ccccc2c(O)c1C(c1ccc2c(c1)Cc1ccccc1-2)c1c(O)c2ccccc2oc1=O`
Resp: 57.2 µM

Req: Return TGI measured with HCT-15 colon given this compound: C[C@@H]1OC(=O)C[C@H]2CC(=O)N(CCC3CN(S(=O)(=O)C(F)(F)F)c4ccccc43)C[C@@H]21 (stereo partly specified)
Resp: > 100 µM

Req: Return TGI measured with HCT-15 colon given this compound: `c1cc[c]([Sn]([S]c2cccc3cccnc23)([S]c2cccc3cccnc23)[c]2ccccc2)cc1`
Resp: 0.446 µM

Req: Return TGI measured with HCT-15 colon given this compound: `C(=C\c1nccc2c1[nH]c1ccccc12)/c1ccccc1`
Resp: 17.5 µM

====

- Tested on: MALME-3M melanoma
- ASSAY INFO: NCI tumour cell line growth inhibition, 48 h
The reader will find reported TGI values listed item by item below.

Examples with answers:
[[record]]
molecule = "CNC(=O)OC1C(O[C@H]2C[C@H]3[C@@H]4CC=C5C[C@@H](O)CC[C@]5(C)[C@H]4CC[C@]3(C)[C@H]2[C@H](C)C(=O)CCC(C)C)OCC(O)C1OC1OCC(O)C(O)C1OC(=O)c1ccc(OC)cc1 (some centres not stated)"
reported_metric = "TGI"
reported = "2.33 µM"

[[record]]
molecule = "CS(=O)(=O)CCn1c(=O)c(Oc2ccc(F)cc2F)cc2cnc(NC3CCOCC3)nc21"
reported_metric = "TGI"
reported = "> 25 µM"

[[record]]
molecule = "CC1(C)CC(=O)c2c(nc(SSc3nc4c(c(-c5ccc(Br)cc5)c3C#N)C(=O)CC(C)(C)C4)c(C#N)c2-c2ccc(Br)cc2)C1"
reported_metric = "TGI"
reported = "> 10 µM"

[[record]]
molecule = "O=C(NNS(=O)(=O)c1ccc(F)cc1)c1cccnc1Nc1ccc(Cl)cc1Cl"
reported_metric = "TGI"
reported = "> 100 µM"

[[record]]
molecule = "C/C1=C/C(=O)O[C@@H]2C[C@@H](CC[C@H](C)/C=C\\C=C\\CC1)O[C@@](OCCc1ccccc1)([C@@H]1CSC(=O)N1)C2"
reported_metric = "TGI"
reported = "0.943 µM"

[[record]]
molecule = "O=c1c2ccccc2nc(-c2ccccc2)n1O"
reported_metric = "TGI"
reported = "> 100 µM"


Now look at this entry.
Req: Return TGI measured with MALME-3M melanoma given this molecule: Cc1c2n(c3ccccc13)CC1CON(C)C21 (configuration not stated)
Resp: > 100 µM

====

- Test system: MCF7 breast
- ASSAY INFO: NCI tumour cell line growth inhibition, 48 h; in the data active = GI50 below about 0.43 µM; inactive = the rest
Reply using exactly one outcome from active, inactive

Please review the entries below; each comes with its answer.
[[record]]
chemical_smiles = "CC(C)(C)OC(=O)CN1CCc2c(sc3ncnc(N/N=C/c4cccc5ccccc45)c23)C1"
classification = "inactive"

[[record]]
chemical_smiles = "COc1ccc(C(=O)COc2cccc(/C=C3\\CSc4ccc(Cl)cc4C3=O)c2)cc1"
classification = "inactive"


Here's the next entry for you.
Req: # outcome recorded in this test, key = `Nc1ccc2ccc(NS(=O)(=O)N3CCCCC3)cc2c1`
Resp: active

====

- Tested on: NCI-H522 lung
- ASSAY INFO: NCI tumour cell line growth inhibition, 48 h
REPORTED METRIC: TGI

[[record]]
molecule = "Cc1sc(N)c(S(=O)(=O)c2ccccc2)c1C"
reported_metric = "TGI"
reported = "> 100 µM"

[[record]]
molecule = "CCOP(=O)(OCC)[C@]12C[C@@H](C)C=C[C@H]1COC2=O"
reported_metric = "TGI"
reported = "> 100 µM"

[[record]]
molecule = "C[C@H](CCC(=O)O)[C@H]1CC[C@H]2[C@@H]3[C@H](O)C[C@@H]4C[C@H](O)CC[C@]4(C)[C@H]3CC[C@]12C"
reported_metric = "TGI"
reported = "> 100 µM"

[[record]]
molecule = "COC(=O)CCc1cccnc1/C=N/O"
reported_metric = "TGI"
reported = "> 100 µM"

[[record]]
molecule = "O=C(O)C(O)C(O)C(O)C(=O)CO (stereo unspecified)"
reported_metric = "TGI"
reported = "> 100 µM"

[[record]]
molecule = "CC(C)C1OC(=O)/C=C/C=C/C=C/C=C/C=C/CC(O)C(C)C(O)CC(O)CC(O)CC(O)CC(O)CC(O)CC(O)/C=C/C1C (stereo unspecified)"
reported_metric = "TGI"
reported = "> 100 µM"

[[record]]
molecule = "CCO/C(O)=C(/C(=N)N1CCCC1)C(=O)Nc1ccc(F)cc1"
reported_metric = "TGI"
reported = "> 100 µM"

[[record]]
molecule = "Cn1c2ccccc2c2nc3ccccc3c(Cl)c21"
reported_metric = "TGI"
reported = "> 100 µM"

[[record]]
molecule = "C/C1=C\\C/C=C(\\C)[C@H]2CC(CC/C(C)=C/CC1)[C@](C)(C=O)O2"
reported_metric = "TGI"
reported = "> 100 µM"

[[record]]
molecule = "COc1cc(C2=NN(c3ccc(S(N)(=O)=O)cc3)C(c3ccc(Cl)cc3)C2)cc(OC)c1OC (stereo unspecified)"
reported_metric = "TGI"
reported = "> 100 µM"


Req: # query: TGI of entry COc1ccc2c(c1)CCC1=C/C(=N\NC(N)=O)CCC12C (stereo unspecified)
Resp: > 10 µM

====

The reader will find reported TGI values listed item by item below.
- Tested on: ACHN renal
- ASSAY INFO: NCI tumour cell line growth inhibition, 48 h

Examples with answers:
[[record]]
compound = "C1=C(c2ccccc2)SC=C(c2ccccc2)S1"
reported_metric = "TGI"
reported = "> 100 µM"

[[record]]
compound = "CC(=O)/C=C/C1=C(c2cccs2)c2ccccc2CC1"
reported_metric = "TGI"
reported = "57.5 µM"

[[record]]
compound = "CN(C)CCc1ccnc2nc(-c3ccc4ccccc4c3)cn12"
reported_metric = "TGI"
reported = "> 100 µM"

[[record]]
compound = "CSCCC(NC(=O)OCc1ccccc1)P(=O)(O)c1ccccc1 (stereo unspecified)"
reported_metric = "TGI"
reported = "> 100 µM"

[[record]]
compound = "O=c1c2ccccc2[nH]c(=S)n1-c1ccc(N=Nc2cccc3cc(O)ccc23)cc1"
reported_metric = "TGI"
reported = "> 100 µM"


Req: Return TGI measured with ACHN renal given this compound: `O=C(CNc1ncco1)Nc1ccc(S(=O)(=O)c2ccc(NC(=O)CNc3ncco3)cc2)cc1`
Resp: 6.23 µM

Req: Return TGI measured with ACHN renal given this compound: `O=C(O)c1cscc1Cc1cccs1`
Resp: > 100 µM

Req: Return TGI measured with ACHN renal given this compound: CCCCCCCCCCCC(O)=C1C(=O)CC(O)CC1=O (stereo unspecified)
Resp: > 100 µM

Req: Return TGI measured with ACHN renal given this compound: COc1ccc(NS(=O)c2ccccc2OC)cc1 (stereo unspecified)
Resp: > 100 µM

Req: Return TGI measured with ACHN renal given this compound: `Nc1cc(-c2ccc(Cl)cc2)nn1-c1nc2ccccc2nc1-c1ccccc1`
Resp: > 100 µM

Req: Return TGI measured with ACHN renal given this compound: `O=S(=O)(O)c1cc(N=Nc2cc(S(=O)(=O)O)c3cccnc3c2O)ccc1/C=C/c1ccc(N=Nc2cc(S(=O)(=O)O)c3cccnc3c2O)cc1S(=O)(=O)O`
Resp: > 100 µM

Req: Return TGI measured with ACHN renal given this compound: `CCOP(=O)(OCC)[C@]12C[C@@H](C)C=C[C@H]1COC2=O`
Resp: > 100 µM

Req: Return TGI measured with ACHN renal given this compound: `COC(=O)c1nc(-c2nc(CCNC(=O)OC(C)(C)C)sc2Cl)sc1Cl`
Resp: > 100 µM

Req: Return TGI measured with ACHN renal given this compound: `COc1cc2cc(Oc3ccc(NC(=O)Nc4ccc(Cl)c(C(F)(F)F)c4)cc3)c(C)nc2cc1OC`
Resp: 4 µM

Req: Return TGI measured with ACHN renal given this compound: CNC(=O)OC1C(O[C@H]2C[C@H]3[C@@H]4CC=C5C[C@@H](O)CC[C@]5(C)[C@H]4CC[C@]3(C)[C@H]2[C@H](C)C(=O)CCC(C)C)OCC(O)C1OC1OCC(O)C(O)C1OC(=O)c1ccc(OC)cc1 (stereo partly specified)
Resp: 5.13 µM

Req: Return TGI measured with ACHN renal given this compound: `Cc1cc(C)n(C(=O)c2nn(-c3ccc(Cl)cc3)cc2O)n1`
Resp: > 100 µM

Req: Return TGI measured with ACHN renal given this compound: `Cc1cccc(C)c1NC(=O)CCC(=O)NC(N)=S`
Resp: > 100 µM

Req: Return TGI measured with ACHN renal given this compound: Brc1ccc2c(c1)C1C(CO2)C(c2ccccc2)=NN1c1ccccc1 (stereo unspecified)
Resp: > 100 µM

Req: Return TGI measured with ACHN renal given this compound: `COC(CN(C=O)[C@@H](c1ccc(Cl)cc1)c1cc2ccccc2o1)OC`
Resp: 41.7 µM

Req: Return TGI measured with ACHN renal given this compound: `NCCP(=O)(O)O`
Resp: > 100 µM

Req: Return TGI measured with ACHN renal given this compound: `CCOC(=O)C(=O)NCCCN1CCOCC1`
Resp: > 100 µM
